Biological target: T1, human TL1A extracellular domain with N-terminal HIS and FLAG tag (human, UniProt O95150 72-251)
T1 construct: whole entry named. ~70 kDa fraction purified by gel filtration
T1 sequence: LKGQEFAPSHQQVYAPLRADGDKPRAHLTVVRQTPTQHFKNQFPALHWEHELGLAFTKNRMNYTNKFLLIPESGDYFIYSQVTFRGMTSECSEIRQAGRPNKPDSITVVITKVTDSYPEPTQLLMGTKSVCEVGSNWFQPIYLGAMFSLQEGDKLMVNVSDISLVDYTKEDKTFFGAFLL
Experiment: SPR run 2; supernatant on Protein A; TL1A 10 ug/mL; timepoint 220
The following binders are listed with their measured TL1A Binding Level (Late) values.
# value in RU; strip the unit string

# count of solved cases: 4
binder	readout-unit	TL1A Binding Level (Late)
320-216 (antibody, human IgG1, name in Kabat numbering, V domains shown, human IgG1, lambda) VH: QVQLVQSGAEVKKPGASVKVSCKASGYTFTSYDINWVRQAPGQGLEWMGWLNPNSGNTGYAQKFQGRVTMTADRSTSTAYMELSSLRSEDTAVYYCAREVPETAAFEYWGQGTLVTVSS VL: QSVLTQPPSVSGAPGQRVTISCTSYSSDIGAGLGVHWYQQLPGTAPKLLIEGYYNRPSGVPDRFSGSKSGTSASLTITGLLPEDEGDYYCQSYDGTLSALFGGGTKLTVLG	RU	147
320-221 (antibody, human IgG1, name in Kabat numbering, V domains shown, human IgG1, lambda) VH: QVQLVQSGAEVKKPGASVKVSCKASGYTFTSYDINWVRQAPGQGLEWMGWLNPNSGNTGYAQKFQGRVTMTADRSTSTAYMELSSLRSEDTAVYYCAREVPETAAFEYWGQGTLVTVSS VL: QSVLTQPPSVSGAPGQRVTISCTSSKSDIGAGLGVHWYQQLPGTAPKLLIEGYYNRPSGVPDRFSGSKSGTSASLTITGLLPEDEGDYYCQSYDGTLSALFGGGTKLTVLG	RU	207
320-224 (antibody, human IgG1, name in Kabat numbering, V domains shown, human IgG1, lambda) VH: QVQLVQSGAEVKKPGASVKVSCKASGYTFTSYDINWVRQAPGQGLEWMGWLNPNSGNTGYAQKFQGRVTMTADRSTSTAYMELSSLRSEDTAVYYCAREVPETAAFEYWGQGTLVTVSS VL: QSVLTQPPSVSGAPGQRVTISCTSSYSDIGAGLGVHWYQQLPGTAPKLLIEGYYNRPSGVPDRFSGSKSGTSASLTITGLLPEDEGDYYCQSYDGTLSALFGGGTKLTVLG	RU	153
320-230 (antibody, human IgG1, name in Kabat numbering, V domains shown, human IgG1, lambda) VH: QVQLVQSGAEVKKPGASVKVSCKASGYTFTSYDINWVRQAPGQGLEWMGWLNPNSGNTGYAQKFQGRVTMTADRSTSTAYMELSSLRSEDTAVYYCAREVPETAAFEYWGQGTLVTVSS VL: QSVLTQPPSVSGAPGQRVTISCTSSSLDIGAGLGVHWYQQLPGTAPKLLIEGYYNRPSGVPDRFSGSKSGTSASLTITGLLPEDEGDYYCQSYDGTLSALFGGGTKLTVLG	RU	223

Prompt: Fill in reported TL1A Binding Level (Late) for this entry: 320-207 (antibody, human IgG1, name in Kabat numbering, V domains shown, human IgG1, lambda) VH: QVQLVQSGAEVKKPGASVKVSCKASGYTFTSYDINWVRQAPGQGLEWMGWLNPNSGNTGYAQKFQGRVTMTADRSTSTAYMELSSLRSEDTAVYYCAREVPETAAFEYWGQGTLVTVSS VL: QSVLTQPPSVSGAPGQRVTISCTWSSSDIGAGLGVHWYQQLPGTAPKLLIEGYYNRPSGVPDRFSGSKSGTSASLTITGLLPEDEGDYYCQSYDGTLSALFGGGTKLTVLG
Completion: 243
